Tested on: biotinyl-Ile-oxazolone
Assay: self-aminoacylation, catalytic enhancement (BIO) (fold over background); higher = more active; k-Seq, kA / k0A0; sequences stand for … in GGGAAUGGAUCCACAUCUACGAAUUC…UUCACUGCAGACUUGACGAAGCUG
Fewer inactive variants are shown than the library holds.
Everything with self-aminoacylation lower than 1 is -1; everything else, including exactly 1, is 1.

[
  {
    "sequence.string": "CCACACUUCGAGCAAUCGGAC [Fam1B.1 aminoacylation ribozyme variant]",
    "category": -1
  },
  {
    "sequence.string": "AUUAACCUGGUCAUCGAAUGA [Fam2.1 aminoacylation ribozyme variant]",
    "category": 1
  },
  {
    "sequence.string": "CUACUUAAAACAAUCGGUCUU [Fam1A.1 aminoacylation ribozyme variant]",
    "category": -1
  },
  {
    "sequence.string": "AUUCACUUAGGUCAUCGGGGG [Fam2.2 aminoacylation ribozyme variant]",
    "category": 1
  },
  {
    "sequence.string": "AUUCACCUAAGUCAUCGGUUG [Fam2.2 aminoacylation ribozyme variant]",
    "category": 1
  },
  {
    "sequence.string": "CUACUUCAGACAAACGGUCUG [Fam1A.1 aminoacylation ribozyme variant]",
    "category": -1
  }
]

----------
Test system: biotinyl-Leu-oxazolone
Assay: self-aminoacylation, catalytic enhancement (BLO) (fold over background); higher = more active; k-Seq, kA / k0A0; sequences stand for … in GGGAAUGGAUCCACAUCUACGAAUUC…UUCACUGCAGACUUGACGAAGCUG
Variants at the floor of the assay were thinned out.
Each record here notes measured self-aminoacylation.
quantity.name: self-aminoacylation

[
  {
    "sequence.string": "CUACGUCAAACAAUCGUUCUG [Fam1A.1 aminoacylation ribozyme variant]",
    "target.or.system": "biotinyl-Leu-oxazolone",
    "assay.value": 0.822
  },
  {
    "sequence.string": "AACGUUGCUAAUAGUCGCAAG [Fam3.1 aminoacylation ribozyme variant]",
    "target.or.system": "biotinyl-Leu-oxazolone",
    "assay.value": 1.66
  },
  {
    "sequence.string": "AUUCACCAAGGUCAUCGGGAG [Fam2.2 aminoacylation ribozyme variant]",
    "target.or.system": "biotinyl-Leu-oxazolone",
    "assay.value": 1.57
  },
  {
    "sequence.string": "CUAUUUCAAAUAAUCGGUCUG [Fam1A.1 aminoacylation ribozyme variant]",
    "target.or.system": "biotinyl-Leu-oxazolone",
    "assay.value": 0.814
  },
  {
    "sequence.string": "CCAUACUUCAAGCAAUCGGUC [Fam1B.1 aminoacylation ribozyme variant]",
    "target.or.system": "biotinyl-Leu-oxazolone",
    "assay.value": 1.14
  },
  {
    "sequence.string": "AUUACAGUGGUCAUCGAGUGA [Fam2.1 aminoacylation ribozyme variant]",
    "target.or.system": "biotinyl-Leu-oxazolone",
    "assay.value": 1.44
  },
  {
    "sequence.string": "AUUACCGUGGUCAUCGAGUUA [Fam2.1 aminoacylation ribozyme variant]",
    "target.or.system": "biotinyl-Leu-oxazolone",
    "assay.value": 0.897
  },
  {
    "sequence.string": "AUUUCCCUGGUUAUCGAGUGA [Fam2.1 aminoacylation ribozyme variant]",
    "target.or.system": "biotinyl-Leu-oxazolone",
    "assay.value": 8.65
  },
  {
    "sequence.string": "AAAUUUGCUAAUAGUAGCAAG [Fam3.1 aminoacylation ribozyme variant]",
    "target.or.system": "biotinyl-Leu-oxazolone",
    "assay.value": 1.26
  },
  {
    "sequence.string": "AUUACCCGAGUCAUCGAGUGA [Fam2.1 aminoacylation ribozyme variant]",
    "target.or.system": "biotinyl-Leu-oxazolone",
    "assay.value": 8.84
  },
  {
    "sequence.string": "AAUUUUGCUAAUCGUCGCAAG [Fam3.1 aminoacylation ribozyme variant]",
    "target.or.system": "biotinyl-Leu-oxazolone",
    "assay.value": 1.37
  },
  {
    "sequence.string": "AAGUUUCCUAAUAGUAGCAAG [Fam3.1 aminoacylation ribozyme variant]",
    "target.or.system": "biotinyl-Leu-oxazolone",
    "assay.value": 1.12
  },
  {
    "sequence.string": "CCACAAUUCAAGCAAUCGGUC [Fam1B.1 aminoacylation ribozyme variant]",
    "target.or.system": "biotinyl-Leu-oxazolone",
    "assay.value": 0.973
  },
  {
    "sequence.string": "CUGCUUCAAAAAAUCGGUCUG [Fam1A.1 aminoacylation ribozyme variant]",
    "target.or.system": "biotinyl-Leu-oxazolone",
    "assay.value": 1.59
  },
  {
    "sequence.string": "AAUUUUGCUAGUAGUCGCAAG [Fam3.1 aminoacylation ribozyme variant]",
    "target.or.system": "biotinyl-Leu-oxazolone",
    "assay.value": 1.56
  },
  {
    "sequence.string": "AUUCGUCUAGGUCAUCGGGUG [Fam2.2 aminoacylation ribozyme variant]",
    "target.or.system": "biotinyl-Leu-oxazolone",
    "assay.value": 5.27
  },
  {
    "sequence.string": "AUUACCCUGCUCACCGAGUGA [Fam2.1 aminoacylation ribozyme variant]",
    "target.or.system": "biotinyl-Leu-oxazolone",
    "assay.value": 6.12
  },
  {
    "sequence.string": "AAGUUUGCUAAUAGUCGAUAG [Fam3.1 aminoacylation ribozyme variant]",
    "target.or.system": "biotinyl-Leu-oxazolone",
    "assay.value": 0.805
  }
]

----------
Tested on: biotinyl-Phe-oxazolone
Assay: self-aminoacylation, catalytic enhancement (BFO) (fold over background); higher = more active; k-Seq, kA / k0A0; sequences stand for … in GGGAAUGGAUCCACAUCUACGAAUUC…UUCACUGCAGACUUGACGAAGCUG
Fewer inactive variants are shown than the library holds.
Each record here notes measured self-aminoacylation.
quantity.name: self-aminoacylation

[
  {
    "sequence.string": "CUACUCUAAACAAUCGGUCUG [Fam1A.1 aminoacylation ribozyme variant]",
    "quantity.name": "self-aminoacylation",
    "assay.value": 0.77
  },
  {
    "sequence.string": "CUACUUCAAACAAUCGGGCUG [Fam1A.1 aminoacylation ribozyme variant]",
    "quantity.name": "self-aminoacylation",
    "assay.value": 13.2
  },
  {
    "sequence.string": "AUUACCAUGGUCCUCGAGUGA [Fam2.1 aminoacylation ribozyme variant]",
    "quantity.name": "self-aminoacylation",
    "assay.value": 29.3
  },
  {
    "sequence.string": "AAUUUUGGUAAUAGUCGCAAG [Fam3.1 aminoacylation ribozyme variant]",
    "quantity.name": "self-aminoacylation",
    "assay.value": 2.19
  },
  {
    "sequence.string": "AUUUCCCUAGUCAUCGAGUGA [Fam2.1 aminoacylation ribozyme variant]",
    "quantity.name": "self-aminoacylation",
    "assay.value": 31.5
  },
  {
    "sequence.string": "CAACACUUAAAGCAAUCGGUC [Fam1B.1 aminoacylation ribozyme variant]",
    "quantity.name": "self-aminoacylation",
    "assay.value": 0.828
  },
  {
    "sequence.string": "AUUACUCUGGUCAUCGGGUGA [Fam2.1 aminoacylation ribozyme variant]",
    "quantity.name": "self-aminoacylation",
    "assay.value": 39.7
  },
  {
    "sequence.string": "GCACACUUCAAGCAAUCGGGC [Fam1B.1 aminoacylation ribozyme variant]",
    "quantity.name": "self-aminoacylation",
    "assay.value": 13.7
  }
]

----------
Test system: biotinyl-Phe-oxazolone
Assay: self-aminoacylation, catalytic enhancement (BFO) (fold over background); higher = more active; k-Seq, kA / k0A0; sequences stand for … in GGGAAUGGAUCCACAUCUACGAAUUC…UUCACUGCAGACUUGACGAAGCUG
Variants at the floor of the assay were thinned out.
Everything with self-aminoacylation lower than 30 is Condition not met; everything else, including exactly 30, is Condition met.

[
  {
    "sequence.string": "CCACACUUCAACCAAUCGGUC [Fam1B.1 aminoacylation ribozyme variant]",
    "category": "Condition met"
  },
  {
    "sequence.string": "AUUCACACAGGUCAUCGGGUG [Fam2.2 aminoacylation ribozyme variant]",
    "category": "Condition met"
  },
  {
    "sequence.string": "UUACUUCAACCAAUCGGUCUG [Fam1A.1 aminoacylation ribozyme variant]",
    "category": "Condition not met"
  },
  {
    "sequence.string": "AUUAGCCUGGUCAUCGUGUGA [Fam2.1 aminoacylation ribozyme variant]",
    "category": "Condition not met"
  },
  {
    "sequence.string": "AUUCACCUAGGUCAUCGCUUG [Fam2.2 aminoacylation ribozyme variant]",
    "category": "Condition not met"
  },
  {
    "sequence.string": "CCACAAUUCAAGCAAUCGGAC [Fam1B.1 aminoacylation ribozyme variant]",
    "category": "Condition not met"
  },
  {
    "sequence.string": "AUUACCCUGGUCAUCUGGUGA [Fam2.1 aminoacylation ribozyme variant]",
    "category": "Condition met"
  },
  {
    "sequence.string": "AACUUUGCUAAUUGUCGCAAG [Fam3.1 aminoacylation ribozyme variant]",
    "category": "Condition not met"
  },
  {
    "sequence.string": "CCAAACUUCAAGGAAUCGGUC [Fam1B.1 aminoacylation ribozyme variant]",
    "category": "Condition not met"
  },
  {
    "sequence.string": "CUCCUGCAAACAAUCGGUCUG [Fam1A.1 aminoacylation ribozyme variant]",
    "category": "Condition not met"
  },
  {
    "sequence.string": "AUUACCAUGGUCAUCGAGUAA [Fam2.1 aminoacylation ribozyme variant]",
    "category": "Condition not met"
  },
  {
    "sequence.string": "AAUCACCUAGGUCAUCGGGUA [Fam2.2 aminoacylation ribozyme variant]",
    "category": "Condition met"
  },
  {
    "sequence.string": "AAGUUAGCUAUUAGUCGCAAG [Fam3.1 aminoacylation ribozyme variant]",
    "category": "Condition not met"
  },
  {
    "sequence.string": "AUUACCUUGAUCAUCGAGUGA [Fam2.1 aminoacylation ribozyme variant]",
    "category": "Condition met"
  },
  {
    "sequence.string": "AUUACCCUGGUCAACGUGUGA [Fam2.1 aminoacylation ribozyme variant]",
    "category": "Condition not met"
  },
  {
    "sequence.string": "AUUGACCUAAGUCAUCGGGUG [Fam2.2 aminoacylation ribozyme variant]",
    "category": "Condition met"
  },
  {
    "sequence.string": "AUUCACCUUGGUGAUCGGGUG [Fam2.2 aminoacylation ribozyme variant]",
    "category": "Condition not met"
  },
  {
    "sequence.string": "CCACACUUCAAGCAAUCGGUG [Fam1B.1 aminoacylation ribozyme variant]",
    "category": "Condition not met"
  }
]
